assay procedure: ACEA_AR_antagonist_AUC_viability: ACEA Biosciences xCELLigence Real-Time Cell Analysis on Androgen Receptor Antagonism for Viability (AID 2283776);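 note: 22Rv1 human prostate cancer cells growing on impedance electrode plates; area under impedance growth curve at 80 h after dosing as viability; hits lower the growth signal relative to DMSO meaning cytotoxicity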
Inconclusive results are not listed. The source made the active and inactive calls. Rule for the calls: active = hit-call score of the fitted dose curve at least 0.9, where 1 is the maximum; inconclusive = response in the unintended direction; inactive = score below 0.9.
Respond using exactly one of the listed classes: yes = active, no = inactive

// known answers, use as guide
Clc1nc(Cl)nc(Nc2ccccc2Cl)n1: no
CCOP(=O)(OCC)Oc1nc(Cl)c(Cl)cc1Cl: yes
COP(=S)(OC)SCn1nnc2ccccc2c1=O: yes
O=c1n(Cl)c(=O)n(Cl)c(=O)n1Cl: no
CC(C)N1C(=O)c2ccccc2NS1(=O)=O: no
CC(C)Nc1nc(Cl)nc(NC(C)C)n1: no
OC(c1ccc(Cl)cc1)(c1ccc(Cl)cc1)C(Cl)(Cl)Cl: yes
Cc1ccc(N=CN(C)C=Nc2ccc(C)cc2C)c(C)c1: yes
Nc1cnn(-c2ccccc2)c(=O)c1Cl: no
C=C(C)CN(CC)c1c([N+](=O)[O-])cc(C(F)(F)F)cc1[N+](=O)[O-]: yes

Input line: Recorded test outcome, item `CNC(=O)N(C)c1nnc(C(C)(C)C)s1`
Output line: no

Input line: Recorded test outcome, item `CC1(C)CON(Cc2ccccc2Cl)C1=O`
Output line: yes

Input line: Recorded test outcome, item `Nc1c(Cl)c(F)nc(OCC(=O)O)c1Cl`
Output line: no

Input line: Recorded test outcome, item `Cc1c(COC(=O)[C@@H]2[C@H](/C=C(\Cl)C(F)(F)F)C2(C)C)cccc1-c1ccccc1`
Output line: yes

Input line: Recorded test outcome, item `CNC(=O)Oc1cccc2ccccc12`
Output line: yes

Input line: Recorded test outcome, item `COc1ccc(-c2ccccc2)cc1NNC(=O)OC(C)C`
Output line: no

###

assay procedure: APR_HepG2_StressKinase_72hr: Apredica 72-hour HepG2 Assay for Stress Kinase (AID 2282921)
experimental setup: HepG2 stress kinase (phospho-c-Jun) imaging, actives raise or lower the signal
Activity calls are given as the source filed them. How the source made its calls: active means hit-call score of the fitted dose curve at least 0.9, where 1 is the maximum; inactive means score below 0.9.
Respond using exactly one of the listed classes: active, inactive

// known answers, use as guide
CS(=O)(=O)c1ccc(C(=O)C2C(=O)CCCC2=O)c([N+](=O)[O-])c1: inactive
COP(=S)(OC)SCn1nnc2ccccc2c1=O: inactive
Nc1c(Cl)c(Cl)nc(C(=O)O)c1Cl: inactive

Input line: Recorded test outcome, item CCCCC(O)(Cn1cncn1)c1ccc(Cl)cc1Cl (configuration not stated)
Output line: active

Input line: Recorded test outcome, item CC(C)=CC1C(C(=O)OCc2coc(Cc3ccccc3)c2)C1(C)C (configuration not stated)
Output line: inactive

Input line: Recorded test outcome, item CCOC(=O)C(C)OC(=O)c1cc(Oc2ccc(C(F)(F)F)cc2Cl)ccc1[N+](=O)[O-] (configuration not stated)
Output line: inactive

Input line: Recorded test outcome, item `OC(c1ccc(Cl)cc1)(c1ccc(Cl)cc1)C(Cl)(Cl)Cl`
Output line: inactive

Input line: Recorded test outcome, item CCOc1cc(C(C)(C)C)ccc1C1COC(c2c(F)cccc2F)=N1 (configuration not stated)
Output line: inactive

###

Read-out: TIMP metallopeptidase inhibitor 2 (TIMP2), TIMP2 (gene 7077)
assay procedure: BSK_KF3CT_TIMP2: BioMAP Diversity Plus: KF3CT Assay for TIMP metallopeptidase inhibitor 2 (TIMP2) Biomarker Activity (AID 2283071)
experimental setup: primary human keratinocytes with fibroblasts; actives raise or lower the signal
Active and inactive are the calls of the source. Rule for the calls: active = hit-call score of the fitted dose curve at least 0.9, where 1 is the maximum; inactive = score below 0.9.
Respond using exactly one of the listed classes: TRUE = active, FALSE = inactive

Input line: Recorded test outcome, item `N#Cc1c(Cl)cccc1Cl`
Output line: FALSE

Input line: Recorded test outcome, item `CC(C)NC(=O)N1CC(=O)N(c2cc(Cl)cc(Cl)c2)C1=O`
Output line: FALSE

Input line: Recorded test outcome, item CCCCC(C#N)(Cn1cncn1)c1ccc(Cl)cc1 (configuration not stated)
Output line: FALSE

Input line: Recorded test outcome, item `Nc1c(Cl)c(Cl)nc(C(=O)O)c1Cl`
Output line: FALSE

Input line: Recorded test outcome, item `Clc1nc(Cl)nc(Nc2ccccc2Cl)n1`
Output line: FALSE

Input line: Recorded test outcome, item `CC(C)Oc1cccc(NC(=O)c2ccccc2C(F)(F)F)c1`
Output line: FALSE

Input line: Recorded test outcome, item `OC(c1ccc(Cl)cc1)(c1ccc(Cl)cc1)C(Cl)(Cl)Cl`
Output line: TRUE
